Target: acyl-CoA:cholesterol O-acyltransferase (ACAT) (Oryctolagus cuniculus)
Construct: The intestinal mucosa of a white rabbit was homogenized and microsomal fraction was obtained by stepwise centrifugation; from tissue; host or cells: intestinal mucosa of white rabbit, microsomal fraction
Sequence (G1SFD9 1-524): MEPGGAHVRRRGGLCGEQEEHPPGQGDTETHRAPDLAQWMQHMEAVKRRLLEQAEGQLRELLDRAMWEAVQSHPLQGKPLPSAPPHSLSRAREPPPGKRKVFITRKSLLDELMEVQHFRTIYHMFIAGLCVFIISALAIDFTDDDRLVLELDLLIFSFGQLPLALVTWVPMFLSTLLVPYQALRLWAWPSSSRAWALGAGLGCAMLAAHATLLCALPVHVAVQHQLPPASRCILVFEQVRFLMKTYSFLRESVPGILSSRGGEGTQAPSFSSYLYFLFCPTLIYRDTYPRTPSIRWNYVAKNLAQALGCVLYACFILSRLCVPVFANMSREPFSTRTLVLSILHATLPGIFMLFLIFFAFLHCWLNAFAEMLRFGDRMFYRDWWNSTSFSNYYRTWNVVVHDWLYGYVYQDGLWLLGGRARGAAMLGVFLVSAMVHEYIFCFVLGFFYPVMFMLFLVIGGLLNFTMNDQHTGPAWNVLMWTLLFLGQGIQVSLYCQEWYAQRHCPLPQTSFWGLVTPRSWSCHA
Assay: Inhibitory activity on acyl-CoA:cholesterol O-acyltransferase (ACAT), intestinal mucosa microsomal fraction, [1-14C]oleyl-CoA incorporation into cholesterol esters
Type: biochemical, white rabbit
Details: 1 μM; read-out: Inhibition rate %
EXPERIMENTAL READOUT: inhibition at 1 µM (%)

CHEM SMILES | MEASUREMENT UNITS | MEASURED VALUE
Cc1cccc(C(C)C)c1NC(=O)Nc1oc2ccc(Cl)cc2c1-c1ccccc1Cl | % | 99.4
CCc1cccc(CC)c1NC(=O)Nc1sc2ccc(Cl)cc2c1-c1ccccc1Cl | % | 99.1
Cc1cc(C)c(NC(=O)Nc2oc3c(C)cc(C)cc3c2-c2ccccc2Cl)c(C)c1 | % | 94
COc1ccccc1NC(=O)Nc1oc2ccc(Cl)cc2c1-c1ccccc1Cl | % | 97.4
CCc1cccc(CC)c1NC(=O)Nc1oc2cc(C)c(C)cc2c1-c1ccccc1Cl | % | 99.5
Cc1cc(C)c2oc(NC(=O)Nc3c(C(C)C)cccc3C(C)C)c(-c3ccccc3Cl)c2c1 | % | 99.5
Cc1ccc(S(=O)(=O)n2c(NC(=O)Nc3c(C)cccc3C(C)C)c(-c3ccccc3Cl)c3cc(C)cc(C)c32)cc1 | % | 85.8
Cc1cc2oc(NC(=O)Nc3c(C)cccc3C(C)C)c(-c3ccccc3Cl)c2cc1C | % | 99.4
O=C(Nc1ccccc1)Nc1oc2ccc(Cl)cc2c1-c1ccccc1Cl | % | 77.9
Cc1cc(C)c2oc(NC(=O)Nc3c(F)cccc3F)c(-c3ccccc3Cl)c2c1 | % | 93
Cc1cc(C)c2oc(NC(=O)Nc3c(Cl)cccc3Cl)c(-c3ccccc3Cl)c2c1 | % | 99.1
O=C(Nc1ccccc1C(F)(F)F)Nc1oc2ccc(Cl)cc2c1-c1ccccc1Cl | % | 99.1
Cc1cc2oc(NC(=O)Nc3c(C)cccc3C)c(-c3ccccc3Cl)c2cc1C | % | 98.9
